# ASSAY_OVERVIEW: Pharmacokinetics assays (plasma and brain)
# Type: in vivo
# STUDY_CONDITIONS: brain
Brain Cmax values, listed per item
MEASURED_PARAMETER: Brain Cmax (ng/g)

INSERT INTO measurements (structure_smiles_string, measured_result) VALUES
  ('N#Cc1ccc(-c2cnc3ccc(-c4ccc(C(=O)N5CCNCC5)cc4)nn23)cc1', 10),
  ('CN(C)C1CCN(C(=O)c2ccc(-c3cn4c(-c5ccc(C#N)cc5)cnc4cn3)cc2)CC1', 14.6),
  ('N#Cc1ccc(-c2cnc3ccc(-c4ccc(C(=O)N5CCOCC5)cc4)cn23)cc1', 678),
  ('N#Cc1ccc(-c2cnn3ccc(-c4ccc(C(=O)N5CCOCC5)cc4)nc23)cc1', 3967),
  ('CN1CCN(C(=O)c2ccc(-c3ccc4ncc(-c5ccc(C#N)cc5)n4c3)cc2)CC1=O', 77.78),
  ('CC(=O)Nc1cc(-c2ccc3ncc(-c4ccc(C#N)cc4)n3c2)ccc1C(=O)N1CCOCC1', 106);
